Numbers sourced from patent US6548494B1.

System under test: purified PARP protein (Homo sapiens)
Sequence (P09874 whole entry): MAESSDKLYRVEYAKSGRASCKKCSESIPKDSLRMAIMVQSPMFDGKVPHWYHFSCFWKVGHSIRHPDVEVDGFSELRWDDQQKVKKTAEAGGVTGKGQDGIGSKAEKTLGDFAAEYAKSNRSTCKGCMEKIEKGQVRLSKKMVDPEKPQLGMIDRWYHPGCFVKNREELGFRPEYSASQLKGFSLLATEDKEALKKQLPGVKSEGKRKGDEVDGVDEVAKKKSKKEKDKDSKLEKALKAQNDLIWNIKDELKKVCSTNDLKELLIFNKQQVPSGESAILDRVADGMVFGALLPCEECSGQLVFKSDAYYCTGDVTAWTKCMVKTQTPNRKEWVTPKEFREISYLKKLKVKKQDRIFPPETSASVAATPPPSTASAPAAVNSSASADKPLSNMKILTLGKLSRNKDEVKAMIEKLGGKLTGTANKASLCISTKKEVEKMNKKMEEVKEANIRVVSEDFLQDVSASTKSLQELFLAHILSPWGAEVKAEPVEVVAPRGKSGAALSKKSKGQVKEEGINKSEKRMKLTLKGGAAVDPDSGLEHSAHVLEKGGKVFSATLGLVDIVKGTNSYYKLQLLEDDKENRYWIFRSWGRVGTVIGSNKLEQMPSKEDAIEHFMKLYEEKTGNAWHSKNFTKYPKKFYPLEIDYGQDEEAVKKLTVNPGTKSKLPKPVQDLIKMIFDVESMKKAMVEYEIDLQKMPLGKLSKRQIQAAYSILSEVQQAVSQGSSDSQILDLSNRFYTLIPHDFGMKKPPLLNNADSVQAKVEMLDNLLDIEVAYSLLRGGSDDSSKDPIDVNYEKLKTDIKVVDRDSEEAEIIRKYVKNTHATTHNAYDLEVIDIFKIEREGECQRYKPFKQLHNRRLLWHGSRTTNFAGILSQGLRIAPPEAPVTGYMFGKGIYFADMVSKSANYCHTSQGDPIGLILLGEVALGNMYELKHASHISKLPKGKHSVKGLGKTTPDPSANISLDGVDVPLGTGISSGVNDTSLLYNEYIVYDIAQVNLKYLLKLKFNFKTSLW
Assay summary: PARP enzyme inhibition assay
Assay type: biochemical
Settings: 20 nM purified PARP (5 nM for tight-binding inhibitors), 500 μM NAD+, 25° C.; several values in one cell = repeat determinations; read-out: Inhibition Constant Ki
Result type: Ki (nM)
One number for each entry, in nM.

Known results for compounds:
Compound | Ki [nM]
O=C1NCCn2c(-c3ccc(-c4ccc(Cl)cc4)o3)nc3cccc1c32 | 10
CCOC(OCC)c1ccc(-c2nc3cccc4c3n2CCNC4=O)cc1 | 32
CC(CNCc1ccc(-c2nc3cccc4c3n2CCNC4=O)cc1)c1ccccc1 (stereo not shown) | 6

Here are 6 compounds. What values of Ki were reported for them?
1. CC(C)(C)OC(=O)[C@H]1CCCN1Cc1ccc(-c2nc3cccc4c3n2CCNC4=O)cc1
2. CN(C)CCCOc1ccc(-c2nc3cccc4c3n2CCNC4=O)cc1
3. O=C1NCCn2c(-c3ccc(CNCCc4ccccc4)cc3)nc3cccc1c32
4. O=C1NCCn2c(C(=O)N3CCOCC3)nc3cccc1c32
5. CC(C)CN(C)Cc1ccc(-c2nc3cccc4c3n2CCNC4=O)cc1
6. O=C1NCCn2c(-c3nccs3)nc3cccc1c32

Result ::
1: 17; 2: 4; 3: 8; 4: 24; 5: 7; 6: 4.3

Here are 5 compounds. What values of Ki were reported for them?
1. C=CCN1CCN(Cc2ccc(-c3nc4cccc5c4n3CCNC5=O)cc2)CC1
2. CNCc1ccc(-c2nc3cc(F)cc4c3n2CCNC4=O)cc1
3. CC(C)CC(O)c1ccc(-c2nc3cccc4c3n2CCNC4=O)cc1 (stereo not shown)
4. O=C1NCCn2c(-c3ccccc3Cl)nc3cccc1c32
5. O=C1NCCn2c(-c3ccc(CN4CC=CCC4)cc3)nc3cccc1c32

Result ::
1. 12
2. 3.3
3. 4.6
4. 7.7
5. 4.7

Here are 3 compounds. What values of Ki were reported for them?
1. O=C1NCCn2c(-c3ccc(C4CCCN4)cc3)nc3cccc1c32 (stereo not shown)
2. O=C1NCCn2c(-c3ccc(CN4CC=CC4)cc3)nc3cc(F)cc1c32
3. O=C1NCCn2c(-c3ccc(Sc4ccc(Cl)cc4)nc3)nc3cccc1c32

Result ::
1. 2.8
2. 4.1
3. 6

Here are 2 compounds. What values of Ki were reported for them?
1. O=C1NCCn2c(-c3ccc(CN4CC=CC4)cc3)nc3cccc1c32
2. CNCc1cccc(-c2nc3cccc4c3n2CCNC4=O)c1

Result ::
1: 4.5; 2: 4.2
